B1: TPR 5TU (parent)
chain: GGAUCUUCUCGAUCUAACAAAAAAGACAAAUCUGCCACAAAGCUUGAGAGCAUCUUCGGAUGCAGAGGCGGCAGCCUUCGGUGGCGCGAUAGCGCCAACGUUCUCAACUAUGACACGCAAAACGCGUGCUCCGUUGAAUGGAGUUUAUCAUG

Variants of: B1
Assay: polymerase ribozyme fitness, log enrichment relative to wild type (log ratio); higher = more active; in vitro selection for triplet polymerase activity
This sample holds only a part of the variants without activity.
polymerase ribozyme fitness (log ratio) vs -2: at or above is y, below is n.

Worked cases, answers included:
[
  {
    "RESIDUE_CHANGE": "C35A C54G C72A C75A G84C C114U G133U A138G",
    "LABEL_CLASS": "n"
  },
  {
    "RESIDUE_CHANGE": "C14A A24U U90A",
    "LABEL_CLASS": "n"
  }
]

**Q:** Reported polymerase ribozyme fitness (log ratio) reaches at least -2 for U13C A16G A19C A28U C38U U55G A73C U77C C95G ?
**A:** n

**Q:** hey, is polymerase ribozyme fitness (log ratio) for this one >= -2? C10U G11U A30U C76A A119U A120C A137U
**A:** n

**Q:** API: above_or_equal(metric=polymerase ribozyme fitness (log ratio), cutoff=-2) for item C36A A60C G71C C79A G84A A91G C93G
**A:** n

**Q:** Record G81C C87A A91U C93U C114G A138C G141C ; criterion: polymerase ribozyme fitness (log ratio) no lower than -2. Met?
**A:** n

**Q:** # bool: polymerase ribozyme fitness (log ratio) of G48U G50C C85G A98U C99U C149U >= -2
**A:** n

**Q:** Kindly determine if polymerase ribozyme fitness (log ratio) recorded for A23C U55A U82C G136U is above or exactly -2.
**A:** n

**Q:** Check the entry A29U G46A U61A U78G C87G A89C G124U U148G : does polymerase ribozyme fitness (log ratio) equal or exceed -2?
**A:** n

**Q:** State whether the measured polymerase ribozyme fitness (log ratio) reaches -2, counting equality as reaching it, for A49C G59U U77C G81C U109G G141C
**A:** n

**Q:** Would you say A52C C103A A147C shows polymerase ribozyme fitness (log ratio) at minimum -2?
**A:** n

**Q:** Identify whether the reported polymerase ribozyme fitness (log ratio) of the following variant is -2 or greater: C35U C51U C85A
**A:** n

**Q:** Reported polymerase ribozyme fitness (log ratio) reaches at least -2 for U15A A19C A52G G83A C103G ?
**A:** n

**Q:** Determine whether this variant has polymerase ribozyme fitness (log ratio) no lower than -2: U45A G126U
**A:** n

**Q:** Reported polymerase ribozyme fitness (log ratio) at or above -2? A37U A40C U55A G58A G59A G84C G126A
**A:** n

**Q:** Entry C36A U56G G68C A98G C103A A121U : is its polymerase ribozyme fitness (log ratio) no less than -2?
**A:** n

**Q:** Kindly determine if polymerase ribozyme fitness (log ratio) recorded for A19C G117C is above or exactly -2.
**A:** y

**Q:** Textbook exercise: given the entry A49C C93A , state whether its polymerase ribozyme fitness (log ratio) is greater than or equal to -2.
**A:** n

**Q:** polymerase ribozyme fitness (log ratio) >= -2 for U6A C69A G92U A98G U111C G152C ?
**A:** n

**Q:** Record A29U G68A ; criterion: polymerase ribozyme fitness (log ratio) no lower than -2. Met?
**A:** n

**Q:** Assess whether reported polymerase ribozyme fitness (log ratio) for C14G G83A U90G G92U U102G C105A C118U A120C U146G sits at -2 or higher.
**A:** n

**Q:** polymerase ribozyme fitness (log ratio) >= -2 for C63G G81C U82A ?
**A:** y

**Q:** polymerase ribozyme fitness (log ratio) >= -2 for A3C C14U A16G G59A C87A ?
**A:** n

**Q:** In plain terms: is recorded polymerase ribozyme fitness (log ratio) at least -2 for C79G A91G A113U ?
**A:** n

**Q:** Is polymerase ribozyme fitness (log ratio) at least -2? Consider U55A C69U C93U
**A:** n

**Q:** Textbook exercise: given the entry G84U G126A , state whether its polymerase ribozyme fitness (log ratio) is greater than or equal to -2.
**A:** y

**Q:** I'd appreciate it if you could say whether A19C G58C C95U G140U has polymerase ribozyme fitness (log ratio) at least equal to -2.
**A:** n

**Q:** Confirm if polymerase ribozyme fitness (log ratio) reported for the variant A30U A91U U104G is -2 or above.
**A:** n

**Q:** Hello, I need to know if C8A G11A C63U G83C U130G G152C has measured polymerase ribozyme fitness (log ratio) not below -2. Thanks!
**A:** n

**Q:** Reported polymerase ribozyme fitness (log ratio) reaches at least -2 for U77G U82A A110C G136A A137U A138U ?
**A:** n

Values compiled from the RNAGym collection of RNA variant scans (doi:10.1073/pnas.2313332121).
